Assay: Inhibition of Beta-lactamase AmpC by quantitative high throughput screening
Returns: string. Value is 1 if measured IC50 is below 10 µM, and -1 if it is greater than or equal to it.

# molecule, label value
measured = [
    ("N#Cc1c(-c2ccccc2)cc(-c2ccco2)c(C#N)c1N", 1),
    ("C=CCNC(=O)c1cc([N+](=O)[O-])cc2c(=O)[nH]c(Nc3ccc(Cl)c(Cl)c3)nc12", 1),
    ("Cc1cc(=O)oc2cc(OCC#N)ccc12", 1),
    ("O=c1c(O)c(-c2ccc(O)c(O)c2)oc2cc(O)ccc12", -1),
    ("CCn1ccnc1C(O)c1cccc(OC)c1OC (stereo unspecified)", 1),
    ("Cn1c(C(C#N)C(=O)c2sc3ccccc3c2Cl)nc2ccccc21 (stereo unspecified)", -1),
    ("Cc1ccc(-c2csc(NC(=O)c3ccno3)n2)cc1", 1),
    ("Cc1ccc(NC(=O)CSC(N)=O)cc1Cl", -1),
    ("C=C(C)CSc1cc(N)c(C#N)c(-c2ccc(C)cc2)c1C#N", 1),
]

====

Measured pIC50, listed per entry for reference.
Experiment: Inhibition of Beta-lactamase AmpC by quantitative high throughput screening
pIC50: −log10 of the molar value.
property measured: pIC50

# compound, property measured, assay result
measured = [
    ("O=C(COC(=O)c1cccc(Oc2ccccc2)c1)Nc1nnc(-c2ccccc2)o1", "pIC50", 4.80),
    ("COc1ccc(C(=O)Nc2nncs2)c(OC)c1", "pIC50", 5.40),
    ("CCc1ccc(C(=O)CSC2=C(C#N)C(c3ccco3)C(C(C)=O)=C(C)N2)cc1 (centres undefined)", "pIC50", 4.89),
    ("O=C(CS[n+]1cc(-c2ccc(F)cc2)cs1)NC(=O)NCc1ccco1", "pIC50", 5.52),
    ("O=C(c1ccc(OCCN2CCCCC2)cc1)c1c(-c2ccc(O)cc2)sc2cc(O)ccc12", "pIC50", 5.30),
    ("COC(=O)c1ccc(-c2nc(-c3ccc(Br)o3)no2)cc1", "pIC50", 5.40),
    ("Cn1cnnc1SCC(=O)Nc1sc2c(c1C(N)=O)CCC2", "pIC50", 5.00),
    ("CCSc1nnc(NC(=O)c2ccc(Br)s2)s1", "pIC50", 5.00),
    ("O=C(Cn1c(=O)oc2ccccc21)Nc1oc(-c2ccccc2)c(-c2ccccc2)c1O", "pIC50", 4.89),
]

====

Biological target: Cruzipain (Trypanosoma cruzi)
Assay: Inhibition of Trypanosoma cruzi cruzain by Flexstation microplate spectrofluorimetry

# structure smiles, measurement qualifier, IC50 (µM)
records = [
    ("O=C(COC(=O)c1cccc(Oc2ccccc2)c1)Nc1nnc(-c2ccccc2)o1", "=", 12),
    ("Cn1cnnc1SCC(=O)Nc1sc2c(c1C(N)=O)CCC2", "=", 120),
    ("NC(=O)SCC(=O)Nc1cccc(Cl)c1", ">", 120),
    ("Cc1ccc(-c2csc(NC(=O)c3ccno3)n2)cc1", ">", 120),
    ("CCCCC/C=C\\C/C=C\\C/C=C\\C/C=C\\CCCC(=O)Nc1ccc(O)cc1", "=", 30),
    ("Cc1ccc(C(=O)Nc2nc(-c3cc(Cl)sc3Cl)cs2)cc1", "=", 12),
]

====

Molecular target: Cruzipain (Trypanosoma cruzi, UniProt P25779)
Sequence (P25779 whole entry): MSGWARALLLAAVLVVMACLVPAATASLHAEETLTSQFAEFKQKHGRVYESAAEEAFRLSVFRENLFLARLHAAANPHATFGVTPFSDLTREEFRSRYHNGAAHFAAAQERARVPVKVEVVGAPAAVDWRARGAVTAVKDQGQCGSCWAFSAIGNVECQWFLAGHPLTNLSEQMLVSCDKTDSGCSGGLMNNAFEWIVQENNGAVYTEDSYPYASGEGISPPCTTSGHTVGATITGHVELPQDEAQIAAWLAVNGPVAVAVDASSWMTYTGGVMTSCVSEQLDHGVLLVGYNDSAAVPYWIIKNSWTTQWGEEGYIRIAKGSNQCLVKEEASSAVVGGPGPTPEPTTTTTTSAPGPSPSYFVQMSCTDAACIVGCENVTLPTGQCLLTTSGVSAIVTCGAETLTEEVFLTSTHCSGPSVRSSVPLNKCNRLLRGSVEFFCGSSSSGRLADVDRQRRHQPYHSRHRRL
Assay: Inhibition of Trypanosoma cruzi cruzain by Flexstation microplate spectrofluorimetry
pIC50: −log10 of the molar value.

# molecule, measurement qualifier, pIC50
rows = [
    ("O=C(CS[n+]1cc(-c2ccc(F)cc2)cs1)NC(=O)NCc1ccco1", "=", 4.22),
    ("O=c1c(O)c(-c2ccc(O)c(O)c2)oc2cc(O)ccc12", "=", 4.52),
    ("CCN(Cc1ccccc1)c1nc2c(S(=O)(=O)c3ccccc3)nnn2c2ccc(Cl)cc12", "=", 4.92),
    ("Cc1cc(=O)oc2cc(OCC#N)ccc12", "<", 3.92),
    ("O=C(CSc1nnc(-c2ccccc2)o1)N1CCN(c2ccccc2)CC1", "=", 4.52),
    ("Cn1c(C(C#N)C(=O)c2sc3ccccc3c2Cl)nc2ccccc21 (configuration not stated)", "=", 4.92),
    ("O=C(Nc1nc(-c2cccs2)cs1)c1ccc(S(=O)(=O)N2CCCC2)cc1", "=", 4.92),
    ("CCc1ccc(C(=O)CSC2=C(C#N)C(c3ccco3)C(C(C)=O)=C(C)N2)cc1 (configuration not stated)", "=", 4.52),
    ("Cc1cccc(NS(=O)(=O)c2ccc(C)c(C(=O)OCC(=O)Nc3cc(C)on3)c2)c1", "=", 4.52),
    ("Cc1cc(NC(=O)Cc2cccs2)no1", "=", 4.52),
    ("Cc1ccc(NC(=O)CSC(N)=O)cc1Cl", "<", 3.92),
    ("Cc1cc(NC(=O)c2cc(CC(C)C)on2)no1", "=", 3.92),
    ("O=C(Nc1ccc(/N=N/c2ccccc2)cc1)c1cccc(Cl)c1", "=", 4.92),
    ("N#Cc1c(-c2ccccc2)cc(-c2ccco2)c(C#N)c1N", "=", 4.92),
    ("c1ccc(-c2cc3c(NCC4COc5ccccc5O4)ncnc3s2)cc1 (configuration not stated)", "=", 4.92),
    ("O=[N+]([O-])c1ccccc1S(=O)(=O)NC[C@H]1CC[C@H](CNCC2CCc3ccccc3C2)CC1 (some centres not stated)", "<", 3.92),
    ("Cc1sc(NC(=S)NC(=O)C2CCCCC2)c(C(N)=O)c1C", "=", 4.92),
    ("COc1ccc(/C=N/NC(=O)c2ccc(Br)cc2)cc1Cn1cc(Cl)cn1", "=", 4.92),
    ("COc1ccc(C(=O)Nc2nncs2)c(OC)c1", "<", 3.92),
    ("Oc1cc(-c2ccc(Cl)c(Cl)c2)[nH]n1", "=", 4.92),
    ("CCCCCCNC(=O)Nc1ccc(S(=O)(=O)Nc2ccc(CCNC[C@H](O)COc3ccc(O)cc3)cc2)cc1", "=", 4.92),
    ("Cc1ccc(Cl)cc1NC(=O)CCC(=O)Nc1cc(Cl)ccc1C", "=", 4.92),
]

====

Assay: Inhibition of Beta-lactamase AmpC by quantitative high throughput screening
pIC50: −log10 of the molar value.
Below, each entry is listed alongside its reported pIC50.
property measured: pIC50

# structure smiles, assay result
data = [
    ("O=C(COC(=O)c1cc(-c2ccco2)nc2ccccc12)NCc1ccc2c(c1)OCO2", 4.89),
    ("Cc1cc(NC(=O)Cc2cccs2)no1", 4.89),
    ("O=C(Nc1nc(-c2ccc(S(=O)(=O)N3CCCCCC3)cc2)cs1)c1cccs1", 5.10),
    ("Oc1cc(-c2ccc(Cl)c(Cl)c2)[nH]n1", 4.89),
]
